MEASURED_ON: T1, DnaK–BHQ10 (E. coli chaperone DnaK labelled with Black Hole Quencher 10) (E. coli, UniProt P0A6Y8 1-638, BHQ10 (from BHQ10-NHS-ester), labelling ratio 1 : 9 DnaK : BHQ10)
T1 construct: chaperone DnaK of Escherichia coli; also called bacterial DnaK; quencher-labelled bacterial DnaK probe; source: produced by Michael Zahn [50]; dialysed and labelled with BHQ10-NHS-ester
ASSAY_TEXT: FRET or BRET; FRET-based quenching assay in solution: fluorescein-modified peptide (50 μl, 1.3 nmol/l) mixed with a serial dilution of DnaK–BHQ10 (50 μl, 0.8–13 000 nmol/l, 1 : 4 series) in modifying buffer (20 mmol/l Na2HPO4, 20 mmol/l KH2PO4, 5 mmol/l MgCl2, 150 mmol/l KCl, pH 7.4), black 384-well plate, 2 h; Kd by non-linear regression (dose-response logistical function, SlideWrite) of quenching against DnaK …
ASSAY_CONTEXT: both partners purified
Cf = 5(6)-carboxyfluorescein
// reported Kd per item

Would you please look over these solved cases?
{"BINDER": "Cf-HRHQGPIFDTRPSPFNPNQPRPGPIY-NH2 (metchnikowin 1 of Drosophila melanogaster; source: synthetic peptide (PANATecs, Tübingen), purified to >95%) [Metchnikowin-1 (P4), Drosophila melanogaster, Cf-[residues removed]-NH2]", "OBSERVED_RESULT": "> 5 µM"}
{"BINDER": "Cf-VDKPDYRPRPRPPNM-NH2 (metalnikowin I of Palomena prasina; source: synthetic peptide (PANATecs, Tübingen), purified to >95%) [Metalnikowin I (P1), Palomena prasina, Cf-VDKPDYRPRPRPPNM-NH2]", "OBSERVED_RESULT": "> 5 µM"}
{"BINDER": "Cf-VDKPDYRPRPWPRPN-NH2 (metalnikowin IIA of Palomena prasina; source: synthetic peptide (PANATecs, Tübingen), purified to >95%) [Metalnikowin IIA (P2), Palomena prasina, Cf-VDKPDYRPRPWPRPN-NH2]", "OBSERVED_RESULT": "> 5 µM"}
{"BINDER": "Cf-FVPYNPPRPGQSKPFPSFPGHGPFNPKIQWPYPLPNPGH-NH2 (abaecin of Bombus pascuorum, 39 residues; also called B. pascuorum abaecin; source: synthetic peptide (PANATecs, Tübingen), purified to >95%) [Abaecin (P3), Bombus pascuorum, Cf-[residues removed]-NH2]", "OBSERVED_RESULT": "0.19 µM"}

Lab note: next binder to report on.
The recorded Kd for entry Cf-HRRQGPIFDTRPSPFNPNQPRPGPIY-NH2 (metchnikowin 2 of Drosophila melanogaster; source: synthetic peptide (PANATecs, Tübingen), purified to >95%) [Metchnikowin-2 (P5), Drosophila melanogaster, Cf-[residues removed]-NH2] equals > 5 µM

Taken from paper PMC4426631.
